Origin of the recorded values: patent US20020137929A1

# System: AMBEL (Ragweed, Common)
# experimental_details: Preemergence herbicidal evaluation
# Format: in vivo, Ambrosia artemisifolia
# condition_notes: preemergence, 0.0313 kg/ha, rated 4-5 weeks after treatment, 0-9 scale
parameter: AMBEL rating
The response must contain the number and no unit.

Which value of AMBEL rating has been reported for C=CCN1C(=O)C(CC(=O)OC(C)C(=O)OCC)SC1=Nc1cc(-n2c(=O)ccn(C)c2=O)c(F)cc1Cl (stereo not shown) in the records? 0.0

What value of measured AMBEL rating is listed for CCOC(=O)CN1C(=O)C(CC(=O)NS(=O)(=O)c2ccccc2)SC1=Nc1cc(-n2c(=O)cc(C(F)(F)F)n(C)c2=O)c(F)cc1Cl (stereo not shown) ? 0.0

Recorded AMBEL rating of CCOC(=O)CN1C(=O)C(CC(=O)NS(=O)(=O)CC)SC1=Nc1cc(-n2c(=O)cc(C(F)(F)F)n(C)c2=O)c(F)cc1Cl (stereo not shown) , please. 0.0

Return reported AMBEL rating; argument: CCOC(=O)CN1C(=O)C(CC(=O)OCCF)SC1=Nc1cc(-n2c(=O)cc(C(F)(F)F)n(C)c2=O)c(F)cc1Cl (stereo not shown) 2.0

###

# Tested on: TRZAWR (Wheat, Winter, cv Riband)
# experimental_details: Postemergence herbicidal evaluation
# Assay type: in vivo, Triticum aestivum
# condition_notes: postemergence, rate 0.0158 kg/ha
parameter: herbicidal rating TRZAWR
Form field (numeric): enter value without unit.

Tell me the measured herbicidal rating TRZAWR of CCOC(=O)CN1C(=O)C(CC(=O)NS(=O)(=O)C(C)C)SC1=Nc1cc(-n2c(=O)cc(C(F)(F)F)n(C)c2=O)c(F)cc1Cl (stereo not shown) , please. 3.0

# input compound: Cn1c(C(F)(F)F)cc(=O)n(-c2cc(N=C3SCC(=O)N3CC(=O)OCC#N)c(Cl)cc2F)c1=O ; wanted: its herbicidal rating TRZAWR 3.0

GET /values?readout=herbicidal rating TRZAWR&item= CCOC(=O)CN1C(=O)C(Cc2ccccc2OC(C)C(=O)O)S/C1=N/c1cc(-n2c(=O)cc(C(F)(F)F)n(C)c2=O)c(F)cc1Cl (stereo not shown) 2.0

// query herbicidal rating TRZAWR value for entry CCCCOC(=O)CN1C(=O)CSC1=Nc1cc(-n2c(=O)cc(C(F)(F)F)n(C)c2=O)c(F)cc1Cl 2.5

###

# Tested on: GLXMAW (Soybean, Williams)
# experimental_details: Postemergence herbicidal evaluation
# Assay type: in vivo, Glycine max, (L.) Merr. cv Williams
# condition_notes: postemergence, rate 0.0630 kg/ha
parameter: GLXMAW herbicidal rating

Any idea what GLXMAW herbicidal rating was measured for COC(=O)CC1SC(=Nc2cc(-n3c(=O)cc(C(F)(F)F)n(C)c3=O)c(F)cc2Cl)N(C)C1=O (stereo not drawn) ? 9.0

Can you look up the measured GLXMAW herbicidal rating of CCOC(=O)CN1C(=O)C(=C2CCCC2)SC1=Nc1cc(-n2c(=O)cc(C(F)(F)F)n(C)c2=O)c(F)cc1Cl for me? 3.5

I have this compound here, Cn1c(C(F)(F)F)cc(=O)n(-c2cc(N=C3SCC(=O)N3[C@H](Cc3ccccc3)C(=O)O)c(Cl)cc2F)c1=O , and I need its recorded GLXMAW herbicidal rating. 6.0

Quick one: GLXMAW herbicidal rating for CCOC(=O)CN1C(=O)C(=Cc2ccc(F)cc2)SC1=Nc1cc(-n2c(=O)cc(C(F)(F)F)n(C)c2=O)c(F)cc1Cl ? 4.5

Param item = Cn1c(C(F)(F)F)cc(=O)n(-c2cc(N=C3SCC(=O)N3C3CCOC3=O)c(Cl)cc2F)c1=O (stereo not drawn) ; retrieve measured GLXMAW herbicidal rating. 7.5

Entry CCOC(=O)C(c1ccc(Cl)cc1)N1C(=O)CSC1=Nc1cc(-n2c(=O)cc(C(F)(F)F)n(C)c2=O)c(F)cc1Cl (racemic) has what GLXMAW herbicidal rating? 5.0
